Each entry below lists one item and its recorded pIC50 value.
measured target: Avi-KRAS G12R (1-169) GppNHp/RAF1 RBD-3xFLAG (52-151) (Homo sapiens, UniProt P01116, G12R)
Construct: Avi-KRAS G12R (1-169)
Sequence (P01116 1-169 isoform P01116-2 G12R): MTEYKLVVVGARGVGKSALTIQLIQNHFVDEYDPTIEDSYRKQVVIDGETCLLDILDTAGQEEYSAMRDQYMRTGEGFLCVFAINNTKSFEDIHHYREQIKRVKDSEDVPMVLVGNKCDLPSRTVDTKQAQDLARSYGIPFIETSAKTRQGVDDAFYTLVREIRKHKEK
test name: Raf1-KRAS G12R-GppNHP disruption HTRF assay (Biological Example 1)
Type: binding
condition notes: KRAS G12R, GppNHp-loaded; Table 11
pIC50: −log10 of the molar value.

# example entries with known answers
[
  {
    "compound": "CN(C)c1nc(OC[C@@]23CCCN2C[C@H](F)C3)nc2c(F)c(-c3ccc(F)c4sc(N)c(C#N)c34)c(C(F)(F)F)cc12",
    "pIC50": "6.00 to 7.00"
  },
  {
    "compound": "CN(c1nc(OC[C@@]23CCCN2C[C@H](F)C3)nc2c(F)c(-c3ccc(F)c4sc(N)c(C#N)c34)c(C(F)(F)F)cc12)[C@@H]1CCC[C@H]1CO",
    "pIC50": "< 5.00"
  }
]

Problem: Would you kindly share the measured pIC50 for N#Cc1c(N)sc2c(F)ccc(-c3c(C(F)(F)F)cc4c(N5CC6CC5CO6)nc(OC[C@@]56CCCN5C[C@H](F)C6)nc4c3F)c12 (stereo partly drawn) ?
Solution: 6.00 to 7.00

Problem: How about CC1(O)CCN(c2nc(OC[C@@]34CCCN3C[C@H](F)C4)nc3c(F)c(-c4ccc(F)c5sc(N)c(C#N)c45)c(C(F)(F)F)cc23)CC1 ?
Solution: 5.00 to 6.00

Problem: How about CCCN(C)c1nc(OC[C@@]23CCCN2C[C@H](F)C3)nc2c(F)c(-c3ccc(F)c4sc(N)c(C#N)c34)c(C(F)(F)F)cc12 ?
Solution: 6.00 to 7.00

Problem: How about N#Cc1c(N)sc2c(F)ccc(-c3c(C(F)(F)F)cc4c(N5CC6(COC6)C5)nc(OC[C@@]56CCCN5C[C@H](F)C6)nc4c3F)c12 ?
Solution: 5.00 to 6.00

Problem: How about CC(=O)N1CCC(N(C)c2nc(OC[C@@]34CCCN3C[C@H](F)C4)nc3c(F)c(-c4ccc(F)c5sc(N)c(C#N)c45)c(C(F)(F)F)cc23)[C@H]1C (stereo partly drawn) ?
Solution: 6.00 to 7.00

Problem: How about N#Cc1c(N)sc2c(F)ccc(-c3c(C(F)(F)F)cc4c(N5CC[C@@H](CO)C5)nc(OC[C@@]56CCCN5C[C@H](F)C6)nc4c3F)c12 ?
Solution: 6.00 to 7.00

Problem: How about N#Cc1c(N)sc2c(F)ccc(-c3c(C(F)(F)F)cc4c(N5CCNS(=O)(=O)CC5)nc(OC[C@@]56CCCN5C[C@H](F)C6)nc4c3F)c12 ?
Solution: > 7.00

* * *

measured target: Avi-KRAS WT (2-169) GTP/RAF1 RBD-3xFLAG (51-131) (Homo sapiens)
Construct: Avi-KRAS WT (2-169)
Sequence (P01116 2-169 isoform P01116-2): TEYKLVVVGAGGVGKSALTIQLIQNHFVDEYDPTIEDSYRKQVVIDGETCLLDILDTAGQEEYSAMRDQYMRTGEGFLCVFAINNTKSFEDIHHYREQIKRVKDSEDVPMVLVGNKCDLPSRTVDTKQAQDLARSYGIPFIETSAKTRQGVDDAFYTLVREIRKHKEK
test name: Raf1-KRAS WT-GTP disruption HTRF assay (Biological Example 3)
Assay type: binding
condition notes: KRAS WT, GTP-loaded
pIC50: −log10 of the molar value.
measured quantity: pIC50

[
  {
    "molecule": "CCN(c1nc(OC[C@@]23CCCN2C[C@H](F)C3)nc2c(F)c(-c3ccc(F)c4sc(N)c(C#N)c34)c(C(F)(F)F)cc12)[C@H]1C[C@H]2CN(C(C)(C)C)C(=O)N2C1 (atropisomer, axis not shown)",
    "pIC50": "5.00 to 6.00"
  },
  {
    "molecule": "CCN(c1nc(OC[C@@]23CCCN2C[C@H](F)C3)nc2c(F)c(-c3ccc(F)c4sc(N)c(C#N)c34)c(C(F)(F)F)cc12)[C@H]1C[C@H]2CCC(=O)N2C1 (atropisomer, axis not shown; (aR))",
    "pIC50": "≥ 7.00"
  }
]

Problem: Would you kindly share the measured pIC50 for CCN(c1nc(OC[C@@]23CCCN2C[C@H](F)C3)nc2c(F)c(-c3ccc(F)c4sc(N)c(C#N)c34)c(C(F)(F)F)cc12)[C@H]1C[C@H](COC)N(C(=O)[C@@H]2C[C@@H]2F)C1 (atropisomer, axis not shown) ?
Solution: 6.00 to 7.00

* * *

measured target: Avi-KRAS G12V (1-169) GppNHp/RAF1 RBD-3xFLAG (52-151) (Homo sapiens, UniProt P01116, G12V)
Construct: Avi-KRAS G12V (1-169)
Sequence (P01116 1-169 isoform P01116-2 G12V): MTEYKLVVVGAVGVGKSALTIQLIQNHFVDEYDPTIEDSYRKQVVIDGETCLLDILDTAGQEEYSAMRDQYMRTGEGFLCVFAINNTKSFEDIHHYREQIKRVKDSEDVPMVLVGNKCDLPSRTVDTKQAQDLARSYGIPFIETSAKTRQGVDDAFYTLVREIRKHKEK
test name: Raf1-KRAS G12V-GppNHP disruption HTRF assay (Biological Example 1)
Assay type: binding
condition notes: KRAS G12V-GppNHp/RAF1 RBD HTRF
measured quantity: IC50

# example entries with known answers
[
  {
    "compound": "CCN(c1nc(OC[C@@]23CCCN2C[C@H](F)C3)nc2c(F)c(-c3ccc(F)c4sc(N)c(C#N)c34)c(C(F)(F)F)cc12)[C@@H]1CCN(C(=O)C2CC2)[C@@H]1C [Compound 406]",
    "value": "100 to 1000 nM"
  },
  {
    "compound": "CN(C)C(=O)[C@H]1CC[C@@H](N(C)c2nc(OC[C@@]34CCCN3C[C@H](F)C4)nc3c(F)c(-c4ccc(F)c5sc(N)c(C#N)c45)c(C(F)(F)F)cc23)C1",
    "value": "1000 to 10000 nM"
  },
  {
    "compound": "C[C@@H]1[C@H](N(C)c2nc(OC[C@@]34CCCN3C[C@H](F)C4)nc3c(F)c(-c4ccc(F)c5sc(N)c(C#N)c45)c(C(F)(F)F)cc23)CCN1C(=O)CF",
    "value": "100 to 1000 nM"
  },
  {
    "compound": "CC(=O)N1CC[C@](C)(N(C)c2nc(OC[C@@]34CCCN3C[C@H](F)C4)nc3c(F)c(-c4ccc(F)c5sc(N)c(C#N)c45)c(C(F)(F)F)cc23)C1",
    "value": "1000 to 10000 nM"
  },
  {
    "compound": "[2H]C1([2H])CN2C[C@H](F)C[C@]2(COc2nc(N(CC)[C@H]3CCN(C(=O)C(C)C)C3)c3cc(C(F)(F)F)c(-c4ccc(F)c5sc(N)c(C#N)c45)c(F)c3n2)C1",
    "value": "100 to 1000 nM"
  },
  {
    "compound": "C[C@@H]1Cn2nc(C(=O)N(C)C)cc2CN1c1nc(OC[C@@]23CCCN2C[C@H](F)C3)nc2c(F)c(-c3ccc(F)c4sc(N)c(C#N)c34)c(C(F)(F)F)cc12",
    "value": "1000 to 10000 nM"
  },
  {
    "compound": "CCN(c1nc(OC[C@@]23CCCN2C[C@H](F)C3)nc2c(F)c(-c3ccc(F)c4sc(N)c(C#N)c34)c(C(F)(F)F)cc12)[C@H]1CCN(C(=O)N(C)C)C1",
    "value": "< 100 nM"
  },
  {
    "compound": "N#Cc1cc2n(n1)CCN(c1nc(OC[C@@]34CCCN3C[C@H](F)C4)nc3c(F)c(-c4ccc(F)c5sc(N)c(C#N)c45)c(C(F)(F)F)cc13)C2",
    "value": "> 10000 nM"
  },
  {
    "compound": "N#Cc1c(N)sc2c(F)ccc(-c3c(C(F)(F)F)cc4c(N5CCc6[nH]ncc6C5)nc(OCC56CCCN5CC(F)C6)nc4c3F)c12 (centres unmarked)",
    "value": "1000 to 10000 nM"
  },
  {
    "compound": "CC(=O)N1C[C@H](N(C)c2nc(OC[C@@]34CCCN3C[C@H](F)C4)nc3c(F)c(-c4ccc(F)c5sc(N)c(C#N)c45)c(C(F)(F)F)cc23)C[C@H]1C",
    "value": "100 to 1000 nM"
  }
]

Now for another entry.
Problem: Hello, I am looking for reported IC50 with Avi-KRAS G12V (1-169) GppNHp/RAF1 RBD-3xFLAG (52-151) (Homo sapiens, UniProt P01116, G12V) for N#Cc1c(N)sc2c(F)ccc(-c3c(C(F)(F)F)cc4c(N5CCO[C@H]6C[C@H]65)nc(OC[C@@]56CCCN5C[C@H](F)C6)nc4c3F)c12 . Could you help?
Solution: 100 to 1000 nM

* * *

measured target: Avi-KRAS WT (1-169) GppNHp/RAF1 RBD-3xFLAG (52-151) (Homo sapiens)
Construct: Avi-KRAS WT (1-169)
Sequence (P01116 1-169 isoform P01116-2): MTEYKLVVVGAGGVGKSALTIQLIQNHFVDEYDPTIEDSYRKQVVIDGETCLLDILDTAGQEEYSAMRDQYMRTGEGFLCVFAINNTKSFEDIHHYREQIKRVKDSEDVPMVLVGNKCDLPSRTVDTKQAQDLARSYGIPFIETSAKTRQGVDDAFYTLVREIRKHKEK
test name: Raf1-KRAS WT-GppNHP disruption HTRF assay (Biological Example 1)
Type: binding
condition notes: KRAS WT-GppNHp/RAF1 RBD HTRF
measured quantity: IC50

[
  {
    "compound": "CN(C)C(=O)c1nc2c(s1)CN(c1nc(OCC34CCCN3CC(F)C4)nc3c(F)c(-c4ccc(F)c5sc(N)c(C#N)c45)c(C(F)(F)F)cc13)CC2 (centres unmarked)",
    "IC50": "< 100 nM"
  }
]

Problem: Would you kindly share the measured IC50 for CC(=O)N1C[C@H]2OCCN(c3nc(OC[C@@]45CCCN4C[C@H](F)C5)nc4c(F)c(-c5ccc(F)c6sc(N)c(C#N)c56)c(C(F)(F)F)cc34)[C@H]2C1 ?
Solution: 1000 to 10000 nM

Problem: How about CN(c1nc(OC[C@@]23CCCN2C[C@H](F)C3)nc2c(F)c(-c3ccc(F)c4sc(N)c(C#N)c34)c(C(F)(F)F)cc12)[C@@H]1C[C@@H]2COC(=O)N2C1 ?
Solution: 100 to 1000 nM

Problem: How about CC(C)C(=O)N1CC[C@@](C)(N(C)c2nc(OC[C@@]34CCCN3C[C@H](F)C4)nc3c(F)c(-c4ccc(F)c5sc(N)c(C#N)c45)c(C(F)(F)F)cc23)[C@H]1C ?
Solution: 1000 to 10000 nM

Problem: How about CCN(c1nc(OC[C@@]23CCCN2C[C@H](F)C3)nc2c(F)c(-c3ccc(F)c4sc(N)c(C#N)c34)c(C(F)(F)F)cc12)[C@@H]1CCN(C(=O)C2CC2)C1 ?
Solution: 100 to 1000 nM
